Target: GLP-1R (Homo sapiens)
Construct: host or cells: GLP-1R CRE-bla CHO-K1 cells
Assay: EC20 GLP-1(9-36) PAM cAMP assay: dose response of compound in the presence of fixed concentration of GLP-1(9-36)
Type: cell-based
Conditions: dose response of compound in presence of fixed concentration of GLP-1(9-36), GLP-1R CRE-bla CHO-K1 cells, read-out: EC20 GLP-1(9-36) PAM EC50
pEC50: −log10 of the molar value.
Quantity measured: pEC50

Tell me its pEC50 given CCCCCCCOc1ccc(-c2cnc(-c3ccc(CC(NC(=O)c4ccc(C(C)(C)C)s4)C(=O)NCC4CCN(C)CC4)cc3)nc2)cc1 (stereo not drawn) [Compound 430] as the entry. 5.00 to 5.30

Using the record for CCCCCCCOc1ccc(-c2cnc(-c3ccc(C[C@H](NC(=O)c4ccc(C(C)(C)C)s4)C(=O)NCC4CCNCC4)cc3)nc2)cc1 [Compound 463] , state its measured pEC50. 5.00 to 5.30

Give pEC50 for CCCCCCCOc1ccc(-c2cnc(-c3ccc(C[C@H](NC(=O)c4ccc(C(C)(C)C)s4)C(=O)N[C@H](CC(=O)O)C(=O)NC)cc3)nc2)cc1 [Compound 630] > 6.10

====

Biological target: GLP-1R (Homo sapiens, UniProt P43220)
Construct: host or cells: GLP-1R CRE-bla CHO-K1 cells
Sequence (P43220 24-463): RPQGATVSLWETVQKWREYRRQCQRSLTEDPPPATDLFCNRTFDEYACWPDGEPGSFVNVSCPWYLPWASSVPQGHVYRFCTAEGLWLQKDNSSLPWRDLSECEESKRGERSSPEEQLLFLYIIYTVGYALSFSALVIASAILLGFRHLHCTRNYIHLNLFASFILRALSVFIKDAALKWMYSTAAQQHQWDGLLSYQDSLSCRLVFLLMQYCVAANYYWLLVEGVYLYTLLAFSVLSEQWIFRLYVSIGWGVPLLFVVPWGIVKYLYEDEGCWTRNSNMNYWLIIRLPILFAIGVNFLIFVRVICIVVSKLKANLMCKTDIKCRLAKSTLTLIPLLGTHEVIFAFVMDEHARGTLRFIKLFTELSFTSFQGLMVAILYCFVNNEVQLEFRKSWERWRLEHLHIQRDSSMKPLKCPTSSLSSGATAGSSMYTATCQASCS
Sequence (P01275 100-127 partner limits assumed): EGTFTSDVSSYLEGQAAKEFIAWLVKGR
Experiment: EC20 GLP-1(9-36) PAM cAMP assay: dose response of compound in the presence of fixed concentration of GLP-1(9-36)
Format: cell-based
Settings: GLP-1R CRE-bla CHO-K1 cells, compound dose response with fixed concentration of GLP-1(9-36), read-out: EC20 GLP-1(9-36) PAM EC50
Excerpt: EC20 GLP-1(9-36) PAM cAMP Assay: Dose Response of Compound in the Presence of Fixed Concentration of GLP-1 (9-36). […]
pEC50: −log10 of the molar value.
Quantity measured: pEC50

Illustrative cases are given below, each with its answer.
1) CCC[C@H]1CC[C@@H](N2CCN(c3cnc(-c4ccc(C[C@H](NC(=O)c5ccc(C(C)(C)C)s5)C(=O)N5CC(C(=O)O)C5)cc4)nc3)CC2)CC1 | 5.60 to 6.10
2) CC(C)(C)c1ccc(C(=O)NC(Cc2ccc(-c3ncc(N4CCC5CCCCC5C4)cn3)cc2)C(=O)N2CC(C(=O)O)C2)s1 (centres unmarked) | > 6.10
3) CCCCC1CCC(C2CCN(c3cnc(-c4ccc(C[C@H](NC(=O)c5ccc(C(C)(C)C)s5)C(=O)N5CC(C(=O)O)C5)cc4)nc3)CC2)CC1 (some centres unmarked) | > 6.10
4) CC[C@H]1CC[C@H](c2ccc(-c3cnc(-c4ccc(C[C@H](NC(=O)c5ccc(C(C)C)s5)C(=O)O)cc4)nc3)cc2)CC1 | > 6.10
5) CCC[C@H]1CC[C@H](C2CCN(c3cnc(-c4ccc(C[C@H](NC(=O)c5cnc(C(C)(C)C)nc5)C(=O)N5CC(C(=O)O)C5)cc4)nc3)CC2)CC1 | > 6.10
6) C[C@@H](NC(=O)[C@H](Cc1ccc(-c2ncc(/C=C/c3cc(F)cc(F)c3)cn2)cc1)NC(=O)c1ccc(C(C)(C)C)s1)C(=O)O | 5.00 to 5.30
7) CCCc1ccc(C2CCN(c3cnc(-c4ccc(C[C@H](NC(=O)c5ccc(C(C)(C)C)s5)C(=O)N5CC(C(=O)O)C5)cc4)nc3)CC2)cn1 | 5.60 to 6.10
8) CC[C@H]1CC[C@H](c2ccc(-c3cnc(-c4ccc(C[C@H](NC(=O)c5ccc(C(C)(C)C)s5)C(=O)N[C@H](C(=O)O)[C@@H](C)O)cc4)nc3)cc2)CC1 | > 6.10

Given the compound CCC[C@H]1CC[C@H](C2CCN(c3cnc(-c4ccc(C[C@H](NC(=O)c5ccc(C(C)(C)C)s5)C(=O)N5CC(c6nn[nH]n6)C5)cc4)nc3)CC2)CC1 , write its reported pEC50. > 6.10

For the compound CCC[C@H]1CC[C@H](C2CCN(c3cnc(-c4ccc(C[C@H](NC(=O)c5ccc(C(C)(C)C)s5)C(=O)NC(CN(C)C)C(=O)O)cc4)nc3)CC2)CC1 (some centres unmarked) , report pEC50. > 6.10

Assign pEC50 to the following record: CCC[C@H]1CC[C@H](C2CCN(c3cnc(-c4ccc(C[C@H](NC(=O)c5ccc(C(C)(C)C)s5)C(=O)N[C@H](CN)C(=O)O)cc4)nc3)CC2)CC1 > 6.10

All values here come from patent US10034886B2.
